# tgt: CDK12/Cyclin K (Homo sapiens)
# Sequence (O75909 whole entry): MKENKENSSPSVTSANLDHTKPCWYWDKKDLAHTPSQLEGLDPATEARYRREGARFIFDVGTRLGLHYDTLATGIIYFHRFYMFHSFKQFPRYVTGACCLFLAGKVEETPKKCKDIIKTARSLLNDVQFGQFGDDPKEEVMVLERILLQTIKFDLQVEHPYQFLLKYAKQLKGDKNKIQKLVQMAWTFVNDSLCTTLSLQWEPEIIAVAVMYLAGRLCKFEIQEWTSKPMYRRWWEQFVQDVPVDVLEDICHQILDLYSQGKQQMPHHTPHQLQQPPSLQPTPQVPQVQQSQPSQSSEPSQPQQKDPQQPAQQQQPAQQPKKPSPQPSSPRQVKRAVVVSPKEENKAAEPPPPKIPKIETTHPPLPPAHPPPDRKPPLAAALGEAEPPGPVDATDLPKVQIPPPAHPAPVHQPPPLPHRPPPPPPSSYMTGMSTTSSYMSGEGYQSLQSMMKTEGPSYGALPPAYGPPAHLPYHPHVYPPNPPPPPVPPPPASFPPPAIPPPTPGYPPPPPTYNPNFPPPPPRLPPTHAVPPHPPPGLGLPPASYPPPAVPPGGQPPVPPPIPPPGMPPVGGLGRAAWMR
# Sequence (Q9NYV4 whole entry): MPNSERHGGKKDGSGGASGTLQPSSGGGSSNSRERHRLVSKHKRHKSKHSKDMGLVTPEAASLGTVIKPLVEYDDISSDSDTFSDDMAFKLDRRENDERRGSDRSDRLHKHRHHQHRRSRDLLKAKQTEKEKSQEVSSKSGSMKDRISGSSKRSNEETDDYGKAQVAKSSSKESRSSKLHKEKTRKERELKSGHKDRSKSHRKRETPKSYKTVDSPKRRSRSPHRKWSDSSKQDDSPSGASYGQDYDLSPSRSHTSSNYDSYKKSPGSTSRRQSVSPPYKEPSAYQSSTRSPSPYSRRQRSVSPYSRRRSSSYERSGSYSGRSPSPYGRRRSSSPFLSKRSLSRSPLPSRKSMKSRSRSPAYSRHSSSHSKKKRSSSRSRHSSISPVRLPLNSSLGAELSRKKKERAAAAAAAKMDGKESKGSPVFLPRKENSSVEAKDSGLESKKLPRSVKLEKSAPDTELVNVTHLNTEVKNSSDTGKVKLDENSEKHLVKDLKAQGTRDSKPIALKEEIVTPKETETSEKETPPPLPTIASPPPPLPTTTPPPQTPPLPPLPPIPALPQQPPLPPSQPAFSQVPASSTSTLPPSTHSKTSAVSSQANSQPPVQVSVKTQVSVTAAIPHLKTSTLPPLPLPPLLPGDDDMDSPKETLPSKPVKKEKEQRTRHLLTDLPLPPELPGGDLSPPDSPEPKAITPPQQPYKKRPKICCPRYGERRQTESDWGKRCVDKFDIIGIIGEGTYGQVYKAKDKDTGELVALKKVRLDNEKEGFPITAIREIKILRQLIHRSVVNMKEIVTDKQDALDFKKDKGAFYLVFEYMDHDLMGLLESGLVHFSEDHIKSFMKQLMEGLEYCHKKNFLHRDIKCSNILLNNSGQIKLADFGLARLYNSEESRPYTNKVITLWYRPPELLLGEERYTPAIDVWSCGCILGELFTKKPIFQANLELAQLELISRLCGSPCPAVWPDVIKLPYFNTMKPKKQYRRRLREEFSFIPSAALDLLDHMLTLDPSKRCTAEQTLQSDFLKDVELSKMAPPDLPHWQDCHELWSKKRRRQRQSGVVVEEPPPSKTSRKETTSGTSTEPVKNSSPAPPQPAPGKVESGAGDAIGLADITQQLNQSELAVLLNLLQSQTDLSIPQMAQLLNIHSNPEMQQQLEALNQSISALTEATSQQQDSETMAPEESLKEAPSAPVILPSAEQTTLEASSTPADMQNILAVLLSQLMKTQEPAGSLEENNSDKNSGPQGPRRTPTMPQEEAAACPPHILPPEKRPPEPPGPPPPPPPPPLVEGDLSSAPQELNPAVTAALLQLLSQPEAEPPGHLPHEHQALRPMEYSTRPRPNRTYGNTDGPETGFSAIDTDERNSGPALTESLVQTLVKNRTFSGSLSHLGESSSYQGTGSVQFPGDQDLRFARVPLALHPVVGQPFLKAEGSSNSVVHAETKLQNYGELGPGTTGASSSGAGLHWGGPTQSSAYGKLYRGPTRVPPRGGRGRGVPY
# assay.details: Inhibition of human recombinant CDK12/CyclinK assessed as reduction in substrate phosphorylation using His-c-Myc as substrate preincubated with enzyme for 5 mins followed by substrate addition for 15 mins in presence of [gamma 32P-ATP] by radioactive kinase assay
Simple rule here: IC50 less than 200 nM is label 1, otherwise label 0.

See these solved cases before continuing.
>  <structure>
C=CC(=O)Nc1ccc(C(=O)N2CCC[C@@H](Nc3ncc(Cl)c(-c4c[nH]c5ccccc45)n3)C2)nc1

>  <tgt>
CDK12/Cyclin K (Homo sapiens)

>  <assigned.category>
label 0

$$$$
>  <structure>
CN(C)C/C=C/C(=O)Nc1ccc(N2CCC[C@@H](Nc3ncc(Cl)c(-c4c[nH]c5ccccc45)n3)C2)cc1

>  <tgt>
CDK12/Cyclin K (Homo sapiens)

>  <assigned.category>
label 1

$$$$
>  <structure>
CN(C)C/C=C/C(=O)Nc1ccc(C(=O)N2CCC[C@@H](Nc3ncc(C4CC4)c(-c4c[nH]c5ccccc45)n3)C2)cc1

>  <tgt>
CDK12/Cyclin K (Homo sapiens)

>  <assigned.category>
label 0

$$$$

Input line: Answer whether the molecule `CN(C)C/C=C/C(=O)Nc1ccc(N2CCC[C@@H](Nc3ncc(Cl)c(-c4c[nH]c5ccccc45)n3)C2)nc1` has IC50 strictly less than 200 nM
Output line: label 1

Input line: Answer whether the molecule `CN(C)C/C=C/C(=O)Nc1ccc(C(=O)N2CCC[C@@H](Nc3ncc(Br)c(-c4c[nH]c5ccccc45)n3)C2)cc1` has IC50 strictly less than 200 nM
Output line: label 0

Input line: Answer whether the molecule `CN(C)C/C=C/C(=O)Nc1ccc(O[C@@H]2CCC[C@@H](Nc3ncc(Cl)c(-c4c[nH]c5ccccc45)n3)C2)cc1` has IC50 strictly less than 200 nM
Output line: label 1

----------
# tgt: Ribosomal protein S6 kinase alpha-3 (Homo sapiens, UniProt P51812)
# Sequence (P51812 whole entry): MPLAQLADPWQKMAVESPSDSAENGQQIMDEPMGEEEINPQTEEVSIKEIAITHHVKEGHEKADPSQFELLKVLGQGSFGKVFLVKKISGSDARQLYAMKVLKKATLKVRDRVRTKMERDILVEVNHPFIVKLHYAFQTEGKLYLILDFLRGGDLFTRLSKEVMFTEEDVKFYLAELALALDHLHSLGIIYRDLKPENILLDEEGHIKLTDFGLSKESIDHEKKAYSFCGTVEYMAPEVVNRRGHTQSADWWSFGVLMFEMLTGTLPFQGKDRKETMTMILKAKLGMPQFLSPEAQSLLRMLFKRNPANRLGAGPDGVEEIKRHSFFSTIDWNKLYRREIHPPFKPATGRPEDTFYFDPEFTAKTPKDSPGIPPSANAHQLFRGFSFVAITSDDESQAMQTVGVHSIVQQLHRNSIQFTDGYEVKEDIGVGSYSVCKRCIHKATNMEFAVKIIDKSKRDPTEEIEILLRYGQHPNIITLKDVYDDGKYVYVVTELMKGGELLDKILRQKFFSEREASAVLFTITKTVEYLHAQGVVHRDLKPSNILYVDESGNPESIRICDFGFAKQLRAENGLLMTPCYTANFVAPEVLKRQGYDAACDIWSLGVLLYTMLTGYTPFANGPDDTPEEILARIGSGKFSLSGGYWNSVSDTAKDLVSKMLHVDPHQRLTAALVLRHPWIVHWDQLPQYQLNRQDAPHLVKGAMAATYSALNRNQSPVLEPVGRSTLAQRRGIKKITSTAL
measure.name: IC50 (µM)
One number for each entry, in µM.

Input line: Sample `CN(C)C/C=C/C(=O)Nc1ccc(O[C@@H]2CCC[C@@H](Nc3ncc(Cl)c(-c4c[nH]c5ccccc45)n3)C2)cc1` — what was its IC50?
Output line: 4.5

----------
# tgt: Cyclin-dependent kinase 13/Cyclin-K (Homo sapiens, UniProt Q14004)
# Sequence (Q14004 whole entry): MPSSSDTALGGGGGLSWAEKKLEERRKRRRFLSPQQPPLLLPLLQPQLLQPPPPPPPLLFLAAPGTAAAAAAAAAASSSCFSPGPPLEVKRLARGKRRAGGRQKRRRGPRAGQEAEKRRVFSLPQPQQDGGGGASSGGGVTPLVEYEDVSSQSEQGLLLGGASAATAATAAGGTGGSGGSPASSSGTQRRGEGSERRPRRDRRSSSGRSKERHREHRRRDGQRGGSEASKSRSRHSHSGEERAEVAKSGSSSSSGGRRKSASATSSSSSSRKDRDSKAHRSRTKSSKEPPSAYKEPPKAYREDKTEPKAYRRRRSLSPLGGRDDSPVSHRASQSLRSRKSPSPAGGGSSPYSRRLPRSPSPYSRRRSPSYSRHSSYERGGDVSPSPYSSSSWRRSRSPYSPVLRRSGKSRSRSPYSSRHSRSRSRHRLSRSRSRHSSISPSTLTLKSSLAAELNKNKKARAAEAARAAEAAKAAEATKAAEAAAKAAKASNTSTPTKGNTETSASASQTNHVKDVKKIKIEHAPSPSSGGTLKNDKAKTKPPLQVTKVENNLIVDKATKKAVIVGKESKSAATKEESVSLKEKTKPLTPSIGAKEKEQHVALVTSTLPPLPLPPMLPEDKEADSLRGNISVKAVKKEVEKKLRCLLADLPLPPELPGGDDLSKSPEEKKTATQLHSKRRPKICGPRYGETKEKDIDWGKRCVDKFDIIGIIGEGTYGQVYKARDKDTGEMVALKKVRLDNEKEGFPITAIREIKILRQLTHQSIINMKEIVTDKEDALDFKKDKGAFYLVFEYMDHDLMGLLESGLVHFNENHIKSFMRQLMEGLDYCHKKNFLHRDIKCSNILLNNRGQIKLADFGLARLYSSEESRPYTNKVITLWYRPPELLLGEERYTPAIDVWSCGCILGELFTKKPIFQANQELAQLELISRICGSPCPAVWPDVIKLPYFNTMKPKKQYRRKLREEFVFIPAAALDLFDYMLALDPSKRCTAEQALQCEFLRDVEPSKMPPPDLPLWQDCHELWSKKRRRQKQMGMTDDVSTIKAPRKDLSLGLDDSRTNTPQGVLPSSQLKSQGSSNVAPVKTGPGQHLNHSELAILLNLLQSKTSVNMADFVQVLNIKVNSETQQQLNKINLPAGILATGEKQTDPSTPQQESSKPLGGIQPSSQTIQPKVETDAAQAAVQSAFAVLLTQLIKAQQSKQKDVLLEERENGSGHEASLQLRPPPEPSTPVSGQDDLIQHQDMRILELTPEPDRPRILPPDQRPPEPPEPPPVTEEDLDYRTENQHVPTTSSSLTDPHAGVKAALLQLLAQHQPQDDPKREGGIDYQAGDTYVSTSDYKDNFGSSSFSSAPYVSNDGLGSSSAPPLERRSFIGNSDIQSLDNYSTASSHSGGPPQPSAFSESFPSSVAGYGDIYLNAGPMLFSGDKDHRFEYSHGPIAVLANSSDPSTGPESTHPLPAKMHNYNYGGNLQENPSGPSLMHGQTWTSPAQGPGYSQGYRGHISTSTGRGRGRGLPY
# Sequence (O75909 whole entry, further chain): as the sequence (O75909 whole entry) above
# assay.details: Inhibition of human recombinant CDK13/CyclinK assessed as reduction in substrate phosphorylation using His-c-Myc as substrate preincubated with enzyme for 5 mins followed by substrate addition for 15 mins in presence of [gamma 32P-ATP] by radioactive kinase assay
# Assay type: protein-complex assay
I'd be grateful if you could share measured log10 IC50 for these entries.
Record value = log10 of IC50 given in nM.

Here is how some molecules turned out for log10 IC50.
>  <structure>
C=CC(=O)Nc1ccc(C(=O)N2CCC[C@@H](Nc3ncc(Cl)c(-c4c[nH]c5ccccc45)n3)C2)nc1

>  <log10 IC50>
2.90

$$$$
>  <structure>
CN(C)C/C=C/C(=O)Nc1ccc(C(=O)N2CCC[C@@H](Nc3ncc(Br)c(-c4c[nH]c5ccccc45)n3)C2)cc1

>  <log10 IC50>
2.76

$$$$
>  <structure>
CN(C)C/C=C/C(=O)Nc1ccc(C(=O)N2CCC[C@@H](Nc3ncc(Cl)c(-c4c[nH]c5ccccc45)n3)C2)nc1

>  <log10 IC50>
3.21

$$$$
>  <structure>
CN(C)C/C=C/C(=O)Nc1ccc(O[C@@H]2CCC[C@@H](Nc3ncc(Cl)c(-c4c[nH]c5ccccc45)n3)C2)c(F)c1

>  <log10 IC50>
2.68

$$$$

Kindly give each listed record's log10 IC50.
1. CN(C)C/C=C/C(=O)Nc1ccc(N2CCC[C@@H](Nc3ncc(Cl)c(-c4c[nH]c5ccccc45)n3)C2)nc1
2. CN(C)C/C=C/C(=O)Nc1ccc(O[C@H]2CCC[C@@H](Nc3ncc(Cl)c(-c4c[nH]c5ccccc45)n3)C2)cc1
3. CN(C)C/C=C/C(=O)Nc1ccc(N2CCC[C@@H](Nc3ncc(Cl)c(-c4c[nH]c5ccccc45)n3)C2)cc1

Output line:
1: 2.27; 2: 2.26; 3: 2.25

// data source = ChEMBL document CHEMBL4828703
